- Test system: HGC-27 (Gastric Carcinoma)
- experiment: combination Emax (second highest fraction inhibited in the dose matrix, 72 h); higher = more inhibition; extreme values may be limits of the assay
// combination Emax lookup, one value per entry
reportedProperty: combination Emax

INSERT INTO results (compound, targetofassay, reportedmeasurement) VALUES
  ('CN(C)CCCOc1ccc(-c2ccc3ncc4c(c3c2)n(C2CCOCC2)c(=O)n4C)cn1 [AZD0156] + O=C(c1cc(Cc2n[nH]c(=O)c3ccccc23)ccc1F)N1CCN(C(=O)C2CC2)CC1 [Olaparib] (first compound max 3 µM, partner max 3 µM)', 'HGC-27 (Gastric Carcinoma)', 0.478),
  ('COc1nnc2ccc(N3CCC(c4ccc(OCCN5CCN(C)C(=O)[C@H]5C)cc4)CC3)nn12 [AZD5153] + CN(CC[C@H](CSC1=CC=CC=C1)NC2=C(C=C(C=C2)S(=O)(=O)NC(=O)C3=CC=C(C=C3)N4CCC(CC4)[C@H](C5=CC=CC=C5C6=CC=C(C=C6)Cl)O)S(=O)(=O)C(F)(F)F)CCO [AZD4320] (first compound max 1 µM, 7x7, partner max 1 µM)', 'HGC-27 (Gastric Carcinoma)', 0.772),
  ('CC1(C)CCC(CN2CCN(c3ccc(C(=O)NS(=O)(=O)c4ccc(NCC5CCOCC5)c([N+](=O)[O-])c4)c(Oc4cnc5[nH]ccc5c4)c3)CC2)=C(c2ccc(Cl)cc2)C1 [Venetoclax] + CCN(CCO)CCCOc1ccc2c(Nc3cc(CC(=O)Nc4cccc(F)c4)[nH]n3)ncnc2c1 [AZD2811] (first compound max 1 µM, 7x7, partner max 1 µM)', 'HGC-27 (Gastric Carcinoma)', 0.809),
  ('CN(CCO)CC[C@H](CSc1ccccc1)Nc1ccc(S(=O)(=O)NC(=O)c2ccc(N3CCC([C@@H](O)c4ccccc4-c4ccc(Cl)cc4)CC3)cc2)cc1S(=O)(=O)C(F)(F)F [AZD4320] + Cc1cc2ncnn2cc1Nc1ncc2c(n1)n(C1CCOCC1)c(=O)n2C [AZD7648] (first compound max 1 µM, 7x7, partner max 10 µM)', 'HGC-27 (Gastric Carcinoma)', 0.473),
  ('Cc1cc2ncnn2cc1Nc1ncc2c(n1)n(C1CCOCC1)c(=O)n2C [AZD7648] + C[C@@H]1COCCN1C2=NC(=NC(=C2)C3(CC3)[S@](=N)(=O)C)C4=C5C=CNC5=NC=C4 [AZD6738] (first compound max 10 µM, 7x7, partner max 10 µM)', 'HGC-27 (Gastric Carcinoma)', 0.849),
  ('Cc1c2c(nn1C)CSCc1cc(n(C)n1)CSc1cc(c3ccccc3c1)OCCCc1c(C(=O)O)n(C)c3c-2c(Cl)ccc13 [AZD5991] + Cn1cnc2c(F)c(Nc3ccc(Br)cc3Cl)c(C(=O)NOCCO)cc21 [Selumetinib] (first compound max 1 µM, 7x7, partner max 3 µM)', 'HGC-27 (Gastric Carcinoma)', 0.306),
  ('CCc1c2c(nc3ccc(O)cc13)-c1cc3c(c(=O)n1C2)COC(=O)[C@]3(O)CC [SN-38] + CN(C)CCCOc1ccc(-c2ccc3ncc4c(c3c2)n(C2CCOCC2)c(=O)n4C)cn1 [AZD0156] (first compound max 0.3 µM, 7x7, partner max 1 µM)', 'HGC-27 (Gastric Carcinoma)', 0.885);

---

// combination Emax lookup, one value per entry
- System: VA-ES-BJ (Other Solid Carcinomas)
- experiment: combination Emax (second highest fraction inhibited in the dose matrix, 72 h); higher = more inhibition; extreme values may be limits of the assay
reportedProperty: combination Emax

INSERT INTO measurements (molecule, reportedproperty, reportedmeasurement) VALUES
  ('CC(=O)c1c(C)c2cnc(Nc3ccc(N4CCNCC4)cn3)nc2n(C2CCCC2)c1=O [Palbociclib] + CC1(C)CCC(CN2CCN(c3ccc(C(=O)NS(=O)(=O)c4ccc(NCC5CCOCC5)c([N+](=O)[O-])c4)c(Oc4cnc5[nH]ccc5c4)c3)CC2)=C(c2ccc(Cl)cc2)C1 [Venetoclax] (first compound max 10 µM, 7x7, partner max 1 µM)', 'combination Emax', 0.257),
  ('Cc1nc(Nc2ncc(C(=O)Nc3c(C)cccc3Cl)s2)cc(N2CCN(CCO)CC2)n1 [Dasatinib] + CC(=O)Nc1cccc(-n2c(=O)n(C3CC3)c(=O)c3c(Nc4ccc(I)cc4F)n(C)c(=O)c(C)c32)c1 [Trametinib] (first compound max 2 µM, 7x7, partner max 1 µM)', 'combination Emax', 0.441),
  ('Cc1c2c(nn1C)CSCc1cc(n(C)n1)CSc1cc(c3ccccc3c1)OCCCc1c(C(=O)O)n(C)c3c-2c(Cl)ccc13 [AZD5991] + Cn1cnc2c(F)c(Nc3ccc(Br)cc3Cl)c(C(=O)NOCCO)cc21 [Selumetinib] (first compound max 1 µM, 7x7, partner max 3 µM)', 'combination Emax', 0.184);
